Cited source for all entries: the supplement of paper PMC10567573

B1: KCNA4 (parent)
chain: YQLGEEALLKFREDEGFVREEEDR

Variants of: B1
Experiment: protein stability index of a GFP-peptide fusion (GPS, HEK-293T) (PSI 1-6); higher = more stable;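 note: lentivirally expressed fusions sorted by FACS into six bins by GFP to DsRed ratio, PSI derived from sequencing read proportions per bin multiplied by bin number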
Conditions: c terminus: a fixed tail appended

VARIANT_NOTATION | protein stability index
V18F | 4.36
L8A | 4.93
R24A | 4.69
E6G | 4.32
R24M | 4.88
G4Y | 4.57
L8K | 5.04
K10S | 4.43
E22C | 4.32
R12I | 4.15
G4T | 4.12
R12T | 3.98
L3A | 5.22
F11N | 5.75
E21R | 3.05
L3G | 4.53
L3N | 5.68
F17E | 4.79
E6L | 3.32
